Data origin: ChEMBL document CHEMBL1146758

# IC50 values compiled below
target: DNA gyrase (Escherichia coli, UniProt P0AES4+P0AES6)
assayDetails: Inhibitory activity against Escherichia coli DNA gyrase
Assay type: protein-complex assay
parameterMeasured: IC50

{"columns": ["compound", "parameterMeasured", "measuredValue"],
 "data": [
  ["COC(=O)C1CCCN(Cc2n[nH]c3cccc(OCc4ccc(C(C)(C)C)cc4)c23)C1 (centres undefined)", "IC50", "36.7 µM"],
  ["CNCc1n[nH]c2cccc(OCc3ccc(C(C)(C)C)cc3)c12", "IC50", "198 µM"],
  ["COC(=O)C1CCCC(NCc2n[nH]c3cccc(OCc4ccc(Cl)c(Cl)c4)c23)C1 (centres undefined)", "IC50", "2.16 µM"],
  ["CC(C)(C)c1ccc(COc2cccc3[nH]nc(CN4CCNCC4)c23)cc1", "IC50", "169 µM"],
  ["COC(=O)C1CCCC(Nc2[nH]nc3cccc(OCc4ccc(Cl)c(Cl)c4)c23)C1 (centres undefined)", "IC50", "2.23 µM"],
  ["COC(=O)C1CCN(Cc2n[nH]c3cccc(OCc4ccc(C(C)(C)C)cc4)c23)CC1", "IC50", "36.7 µM"],
  ["COC(=O)C1CCCC(NCc2cc(/C=C/c3cn(C)c4ccc(Cl)cc34)[nH]n2)C1 (stereo in doubt; 7bb)", "IC50", "2.34 µM"],
  ["CCOC(=O)CCCNc1[nH]nc2cccc(OCc3ccc(C(C)(C)C)cc3)c12", "IC50", "39.1 µM"],
  ["COC(=O)C1CCCC(Nc2[nH]nc3cccc(OCc4ccc(Cl)cc4)c23)C1 (centres undefined)", "IC50", "38.7 µM"]
]}

====

Test system: Enterococcus faecalis
assayDetails: Inhibitory activity against Enterococcus faecalis KU 1777
Type: functional
cond: Enterococcus faecalis; read-out: MIC
# MIC values compiled below

{"columns": ["compound", "MIC"],
 "data": [
  ["Cc1cc(=O)oc2cc(CCc3n[nH]c4cccc(OCc5ccc(C(C)(C)C)cc5)c34)ccc12", "> 128 µg/mL"],
  ["COC(=O)C1CCCC(Nc2[nH]nc3cccc(OCc4cnc(Cl)c(Cl)c4)c23)C1 (stereo not drawn)", "> 128 µg/mL"],
  ["CC(C)(C)c1ccc(COc2cccc3[nH]nc(NCCCC(=O)O)c23)cc1", "> 128 µg/mL"]
]}
